- target under test: T1, mPD-1-his (mouse, UniProt Q02242 25-167, limits assumed)
- T1 construct: domain: IgV domain
- T1 sequence: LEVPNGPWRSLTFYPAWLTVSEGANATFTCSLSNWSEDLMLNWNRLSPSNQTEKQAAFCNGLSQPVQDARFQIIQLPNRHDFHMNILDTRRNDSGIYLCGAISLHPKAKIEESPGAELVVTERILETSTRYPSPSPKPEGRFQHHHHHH
- test method notes: SPR Biacore, mPD1-his
reported endpoint: kon (M⁻¹ s⁻¹)
Give the number; M⁻¹ s⁻¹ is assumed, so skip it.

Sample records with kon:
binder	readout units	measured result
m3A7 (antibody, V domains shown, R3A9 derivative; also called 7115C) VH: QVQLVQSGAEVKKPGASVKVSCKASGHTFTSYYIHWVRQAPGQGLEWMGIINPSGGSTSYAQKFQGRVTMTRDTSTSTVYMELSSLRSEDTAVYYCARDRAYGGAGDYWGQGTLVTVSS VL: DIQMTQSPSSLSASVGDRVTITCRASRSISNWLAWYQQKPGKAPKLLIYAASSLQSGVPSRFSGSGSGTDFTLTISSLQPEDFATYYCQQSYSAPVTFGQGTKVEIK	M⁻¹ s⁻¹	272000
m2C1 (antibody, V domains shown, R3A9 derivative; also called m3CM (apparent misprint)) VH: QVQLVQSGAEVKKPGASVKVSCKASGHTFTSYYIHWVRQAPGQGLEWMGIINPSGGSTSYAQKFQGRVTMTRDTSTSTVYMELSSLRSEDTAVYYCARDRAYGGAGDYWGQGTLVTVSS VL: DIQMTQSPSSLSASVGDRVTITCRASRSISSWLAWYQQKPGKAPKLLIYAASSLQSGVPSRFSGSGSGTDFTLTISSLQPEDFATYYCQQSYSIPATFGQGTKVEIK	M⁻¹ s⁻¹	215000
R3A9 (antibody, V domains shown, also called 7115A; mPD1 parental (R3A9)) VH: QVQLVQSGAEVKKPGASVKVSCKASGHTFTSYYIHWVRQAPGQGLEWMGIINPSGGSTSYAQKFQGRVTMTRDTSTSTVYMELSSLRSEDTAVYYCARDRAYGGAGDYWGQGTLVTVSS VL: DIQMTQSPSSLSASVGDRVTITCRASQSVGTWLAWYQQKPGKAPKLLIYSASTLQSGVPSRFSGSGSGTDFTLTISSLQPEDFATYYCQQSYSAPLTFGGGTKVEIK	M⁻¹ s⁻¹	409000

GET /values?readout=kon&item= m2A1 (antibody, V domains shown, R3A9 derivative; also called m2AM (apparent misprint)) VH: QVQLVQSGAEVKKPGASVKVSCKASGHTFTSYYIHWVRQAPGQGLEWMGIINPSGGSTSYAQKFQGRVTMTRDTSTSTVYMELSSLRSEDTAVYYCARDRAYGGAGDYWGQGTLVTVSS VL: DIQMTQSPSSLSASVGDRVTITCRASRGISSWLAWYQQKPGKAPKLLIYAASSLQSGVPSRFSGSGSGTDFTLTISSLQPEDFATYYCQQSYSPPWTFGQGTKVEIK
375000

Same read-out for m4D1 (antibody, V domains shown, R3A9 derivative) VH: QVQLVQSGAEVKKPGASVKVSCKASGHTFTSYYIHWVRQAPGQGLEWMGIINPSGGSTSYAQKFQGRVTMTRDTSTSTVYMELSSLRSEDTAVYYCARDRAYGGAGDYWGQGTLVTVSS VL: DIQMTQSPSSLSASVGDRVTITCRASQSISAWLAWYQQKPGKAPKLLIYKASSLESGVPSRFSGSGSGTDFTLTISSLQPEDFATYYCQQSYSPPATFGGGTKVEIK ?
70000
